- target: T1, RABV nucleoprotein lacking its N-terminal arm (N[change], residues 24-450) (rabies virus (strain CVS-11), UniProt Q8JXF6 24-450)
- T1 sequence: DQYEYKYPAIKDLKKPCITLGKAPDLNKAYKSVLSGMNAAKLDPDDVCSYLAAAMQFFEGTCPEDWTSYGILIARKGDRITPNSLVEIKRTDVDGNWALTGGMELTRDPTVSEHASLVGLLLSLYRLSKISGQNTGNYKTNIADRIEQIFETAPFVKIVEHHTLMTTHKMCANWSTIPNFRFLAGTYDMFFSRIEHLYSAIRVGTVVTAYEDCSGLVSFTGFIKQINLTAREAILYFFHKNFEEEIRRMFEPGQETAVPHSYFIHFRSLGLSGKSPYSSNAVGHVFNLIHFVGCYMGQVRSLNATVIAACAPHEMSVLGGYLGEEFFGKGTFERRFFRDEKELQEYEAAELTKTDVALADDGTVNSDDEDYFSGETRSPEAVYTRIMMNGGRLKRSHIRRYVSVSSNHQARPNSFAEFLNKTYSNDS
- experimentalDetails: fluorescence polarisation
- assayContext: both partners purified
measuredParameter: IC50

Value of measured IC50 for the entry RABV phosphoprotein residues 1-68 with C-terminal His6 (P68−His6) (peptide) MSKIFVNPSAIRAGLADLEMAEETVDLINRNIEDNQAHLQGEPIEVDNLPEDMKRLHLDDEKSSNLGE : ~1000 nM
